Data credit: the supplement of paper PMC10065799

Reported phosphorylation enrichment values for a set of sequences
- subject-of-test: MERTK (UniProt Q12866)
- Sequence (Q12866 whole entry, looked up): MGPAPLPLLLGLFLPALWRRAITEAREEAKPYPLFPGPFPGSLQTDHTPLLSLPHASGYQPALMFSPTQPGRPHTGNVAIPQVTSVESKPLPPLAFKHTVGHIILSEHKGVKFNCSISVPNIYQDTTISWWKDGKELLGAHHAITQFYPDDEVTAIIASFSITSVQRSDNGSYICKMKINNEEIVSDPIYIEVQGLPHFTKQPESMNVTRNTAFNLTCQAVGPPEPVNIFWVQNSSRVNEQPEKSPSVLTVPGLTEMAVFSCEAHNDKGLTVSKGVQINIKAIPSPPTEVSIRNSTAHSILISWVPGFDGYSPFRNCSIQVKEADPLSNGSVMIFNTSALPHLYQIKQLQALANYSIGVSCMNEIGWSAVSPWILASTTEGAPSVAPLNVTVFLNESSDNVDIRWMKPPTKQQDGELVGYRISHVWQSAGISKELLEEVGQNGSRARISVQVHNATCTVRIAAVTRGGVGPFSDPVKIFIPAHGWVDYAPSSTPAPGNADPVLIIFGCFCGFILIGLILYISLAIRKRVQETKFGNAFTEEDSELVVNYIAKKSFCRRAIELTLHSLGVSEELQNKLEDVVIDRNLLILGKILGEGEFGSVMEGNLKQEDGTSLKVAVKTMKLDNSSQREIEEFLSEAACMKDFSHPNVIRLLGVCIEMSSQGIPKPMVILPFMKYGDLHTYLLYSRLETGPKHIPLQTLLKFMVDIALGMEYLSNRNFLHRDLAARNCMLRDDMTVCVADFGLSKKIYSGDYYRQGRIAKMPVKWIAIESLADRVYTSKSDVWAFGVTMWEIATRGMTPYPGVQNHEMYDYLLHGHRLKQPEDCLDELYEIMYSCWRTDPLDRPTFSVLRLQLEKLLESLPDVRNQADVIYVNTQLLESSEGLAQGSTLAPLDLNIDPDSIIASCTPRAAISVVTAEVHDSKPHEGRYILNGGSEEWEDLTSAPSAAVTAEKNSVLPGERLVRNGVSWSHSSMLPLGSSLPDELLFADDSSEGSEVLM
- experiment-description: phosphorylation enrichment, bacterial display (enrichment ratio); higher = better substrate or ligand; peptides without Tyr show the background;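 note: 11-residue human phosphosite peptides and single-mutation variants displayed on the E. coli surface, counted by deep sequencing, each peptide's frequency after selection divided by its frequency in the unselected input library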;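 note: frequency after pTyr selection over input frequency; kinase dosed for 20-30% of maximal phosphorylation in three min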
Output spec: single numeric token, no unit.

>>> df
                     residue_sequence         subject_of_test  recorded_number
0             VRHRRYKHTHE [CTCF_Y343]  MERTK (UniProt Q12866)            0.684
1    FSGDCYRIQGR [DDR2_Y741_Y740C_YF]  MERTK (UniProt Q12866)             0.35
2  KLQKFYRKNPD [EHHADH_Y683_Q685K_YF]  MERTK (UniProt Q12866)            0.449
3            PIPAAYNRYDQ [CDC73_Y290]  MERTK (UniProt Q12866)            0.263
4   RRAKGYPIFLF [ITGB2_Y125_D128Y_YF]  MERTK (UniProt Q12866)            0.524
5       RNAAEYPLSSG [ABL1_Y139_L140P]  MERTK (UniProt Q12866)            0.453
6      IEPVIDVVQRR [ANOS1_Y217_Y217D]  MERTK (UniProt Q12866)             0.36
7         ALEKTYNTYRS [B4GALNT2_Y538]  MERTK (UniProt Q12866)            0.312
8             KVNKIYYPDFI [LIG3_Y767]  MERTK (UniProt Q12866)             1.05
9    VGNAAYQAGSL [STK36_Y1181_P1185S]  MERTK (UniProt Q12866)            0.312

sequence YSNKLHYQLEQ [PDPR_Y109_Y109H] , phosphorylation enrichment observed: 0.484

sequence FPDFVYKCIKA [DPYSL2_Y479_R481C] , phosphorylation enrichment observed: 0.446

sequence LFHENYNAGTY [CFI_Y421_I416L] , phosphorylation enrichment observed: 0.537

sequence LMLVLYGRIFR [HTR1A_Y215] , phosphorylation enrichment observed: 0.475

sequence RESYKYLPSSL [CXXC1_Y218_F219L] , phosphorylation enrichment observed: 0.859

sequence QISRDYGVLLE [PRDX3_Y172] , phosphorylation enrichment observed: 0.64
